biological target: CDK13/CycK (Homo sapiens, UniProt Q14004); construct: purchased Reaction Biology Europe GmbH; assay: PanQinase kinase panel: CDK13/CycK; type: biochemical; conditions: read-out: INHIBITORY EFFECT @ 1 uM: CDK13/CycK
Sequence (Q14004 whole entry): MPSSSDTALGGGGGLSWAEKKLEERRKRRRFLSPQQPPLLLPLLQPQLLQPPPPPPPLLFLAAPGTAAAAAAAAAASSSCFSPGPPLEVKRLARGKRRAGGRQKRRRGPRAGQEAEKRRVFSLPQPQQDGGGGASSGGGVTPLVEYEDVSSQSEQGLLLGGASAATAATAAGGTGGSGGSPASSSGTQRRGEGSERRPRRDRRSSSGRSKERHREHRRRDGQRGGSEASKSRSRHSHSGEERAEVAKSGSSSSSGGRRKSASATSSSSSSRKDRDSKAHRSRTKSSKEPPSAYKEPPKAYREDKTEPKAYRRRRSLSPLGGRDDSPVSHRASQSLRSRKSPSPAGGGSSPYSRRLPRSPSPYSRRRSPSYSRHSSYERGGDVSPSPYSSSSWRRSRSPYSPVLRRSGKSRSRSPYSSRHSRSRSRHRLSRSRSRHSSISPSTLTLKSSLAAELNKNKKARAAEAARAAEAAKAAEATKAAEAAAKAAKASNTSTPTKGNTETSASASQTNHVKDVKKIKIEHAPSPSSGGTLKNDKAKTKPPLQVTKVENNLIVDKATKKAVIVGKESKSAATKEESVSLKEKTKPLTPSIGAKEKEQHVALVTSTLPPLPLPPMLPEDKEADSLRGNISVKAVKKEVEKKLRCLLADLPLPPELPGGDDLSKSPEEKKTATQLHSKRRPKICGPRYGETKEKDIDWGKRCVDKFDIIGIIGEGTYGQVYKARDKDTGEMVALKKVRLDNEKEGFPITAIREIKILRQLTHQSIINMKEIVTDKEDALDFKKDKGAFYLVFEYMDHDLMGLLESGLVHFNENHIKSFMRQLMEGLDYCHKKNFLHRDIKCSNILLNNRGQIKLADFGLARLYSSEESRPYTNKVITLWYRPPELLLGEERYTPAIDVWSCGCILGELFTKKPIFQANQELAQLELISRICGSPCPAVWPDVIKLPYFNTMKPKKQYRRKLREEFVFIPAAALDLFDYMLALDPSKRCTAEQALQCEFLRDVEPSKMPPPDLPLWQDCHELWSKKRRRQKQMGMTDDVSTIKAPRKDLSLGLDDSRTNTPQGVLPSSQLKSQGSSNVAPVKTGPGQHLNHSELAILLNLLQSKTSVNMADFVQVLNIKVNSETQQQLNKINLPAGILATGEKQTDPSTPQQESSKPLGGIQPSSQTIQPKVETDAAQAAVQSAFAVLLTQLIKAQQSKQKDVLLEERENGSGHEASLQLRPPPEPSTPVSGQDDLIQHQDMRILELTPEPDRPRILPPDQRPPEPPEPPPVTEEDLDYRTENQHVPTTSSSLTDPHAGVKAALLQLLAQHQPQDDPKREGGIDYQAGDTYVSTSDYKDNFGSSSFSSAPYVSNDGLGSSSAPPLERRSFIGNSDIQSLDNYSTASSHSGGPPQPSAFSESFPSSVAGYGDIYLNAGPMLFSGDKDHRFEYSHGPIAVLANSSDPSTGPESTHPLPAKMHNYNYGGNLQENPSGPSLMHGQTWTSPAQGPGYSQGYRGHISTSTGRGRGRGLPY
Sequence (O75909 whole entry partner): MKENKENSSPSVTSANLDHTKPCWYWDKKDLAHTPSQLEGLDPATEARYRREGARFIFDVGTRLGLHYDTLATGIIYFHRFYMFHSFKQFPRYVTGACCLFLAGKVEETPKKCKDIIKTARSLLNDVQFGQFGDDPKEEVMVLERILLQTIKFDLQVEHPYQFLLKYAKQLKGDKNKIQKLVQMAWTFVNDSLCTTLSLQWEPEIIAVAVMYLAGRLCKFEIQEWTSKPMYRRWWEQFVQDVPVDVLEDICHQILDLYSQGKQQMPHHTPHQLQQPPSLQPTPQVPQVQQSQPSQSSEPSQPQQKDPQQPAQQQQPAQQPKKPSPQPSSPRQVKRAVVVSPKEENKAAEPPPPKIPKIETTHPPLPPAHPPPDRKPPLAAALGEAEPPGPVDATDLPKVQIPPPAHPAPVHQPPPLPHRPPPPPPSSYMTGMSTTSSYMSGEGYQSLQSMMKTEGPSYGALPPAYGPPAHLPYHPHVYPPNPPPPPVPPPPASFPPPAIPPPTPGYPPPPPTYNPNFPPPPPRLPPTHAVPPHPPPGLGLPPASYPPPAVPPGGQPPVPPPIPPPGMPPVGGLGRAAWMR
measured.endpoint: inhibition at 1 µM

Enter measured inhibition at 1 µM, system CDK13/CycK (Homo sapiens, UniProt Q14004), for the molecule shown: C=CC(=O)N1CCC[C@@H](n2nc(-c3ccc(Oc4ccccc4)cc3)c3c(N)ncnc32)C1 [Ibrutinib, ibrutinib, reference compound]
< 50%

Give inhibition at 1 µM; test system CDK13/CycK (Homo sapiens, UniProt Q14004); molecule "C=CC(=O)N1CCC([C@@H]2CCNc3c(C(N)=O)c(-c4ccc(Oc5ccccc5)cc4)nn32)CC1"
< 50%

Give reported inhibition at 1 µM for "COc1ccc(F)cc1C(=O)NCc1ccc(-c2nn([C@@H](C)C(F)(F)F)c(N)c2C(N)=O)cc1" (CDK13/CycK (Homo sapiens, UniProt Q14004))
< 50%

GET inhibition at 1 µM where system = CDK13/CycK (Homo sapiens, UniProt Q14004) and item = "Cc1cccnc1[C@H]1CCC[C@@H](c2ncccc2C)N1CCN1CCN(C(=O)c2ccc(-c3cc4c(-c5cccc(NC(=O)c6ccccc6)c5C)ncnc4[nH]3)cc2)CC1"
50 to 69%
